Reference source: paper PMC5909954

Target: Complex I
Assay: immunocapture-based OXPHOS activity assay
Type: biochemical, Bos taurus
# pIC50 per entry
As a rule, pIC50 stands for the negative log10 of the concentration, concentration in M.

C/C(O)=C(\C#N)C(=O)Nc1ccc(C(F)(F)F)cc1 [A77 1726] ... 3.64

Let's switch to this compound now.
Query string: pIC50 of Cc1oncc1C(=O)Nc1ccc(C(F)(F)F)cc1 [leflunomide] on Complex I?
Result string: 3.70

====

Target: Complex V (F1FO ATP synthase)
Test: immunocapture-based OXPHOS activity assay
assay_readout: IC50

C/C(O)=C(\C#N)C(=O)Nc1ccc(C(F)(F)F)cc1 [A77 1726] ... 63.7 µM

Let's switch to this compound now.
Query string: I'd like to know its IC50. The compound in question is Cc1oncc1C(=O)Nc1ccc(C(F)(F)F)cc1 [leflunomide]
Result string: 35 µM
